test: Plasma pharmacokinetics
Format: in vivo, human
study conditions: human, plasma, oral, 140 mg, AUC0–tau, mean ± SD, Steady state (cycle 1, day 8); Cholangiocarcinoma N = 6; 140 mg once daily
quantity name: AUC (ng·h/mL)
// note: answer is a bare numeric in ng·h/mL

// fetch AUC given entry CNC(=O)n1ccc2cc(Oc3ccnc(NC(=O)c4ccc(C5CCN(CCO)CC5)cc4)c3)c(OCCOC)cc21 [Tasurgratinib] 1110

###

test: Plasma pharmacokinetics
Format: in vivo, human
study conditions: human, plasma, oral, 140 mg, t max, median (range), Steady state (cycle 1, day 8); Total N = 16; 140 mg once daily
quantity name: Tmax
Form field: result (number plus unit)

// fetch Tmax given entry `CNC(=O)n1ccc2cc(Oc3ccnc(NC(=O)c4ccc(C5CCN(CCO)CC5)cc4)c3)c(OCCOC)cc21` 3.97 h
